Test system: 422866-222-R5-J1-PDC complex spheroids viability
Assay: Anticancer human tumor 422866-222-R5-J1-PDC patient-derived pancreatic adenocarcinoma cell line growth inhibition [RAS]
Conditions: second compound 0.00316 µM; first compound 1 µM; active compounds read low
Checkbox rule: viability, T/C lower than 20% = label 1; viability, T/C not lower than 20% = label 0.

compound	group
Nc1ccn(C2OC(CO)C(O)C2(F)F)c(=O)n1 (configuration not stated) + C=CC(=O)N1CCN(c2nc(OCC3CCCN3C)nc3c(F)c(-c4nc(N)cc(C)c4C(F)(F)F)c(Cl)cc23)C(C)C1	label 1
CC(C)NCC(C(=O)N1CCN(c2ncnc3c2C(C)CC3O)CC1)c1ccc(Cl)cc1 (configuration not stated) + C=CC(=O)N1CCN(c2nc(OCC3CCCN3C)nc3c(F)c(-c4nc(N)cc(C)c4C(F)(F)F)c(Cl)cc23)C(C)C1	label 1
CC(=O)OC12COC1CC(O)C1(C)C(=O)C(O)C3=C(C)C(OC(=O)C(O)C(NC(=O)OC(C)(C)C)c4ccccc4)CC(O)(C(OC(=O)c4ccccc4)C21)C3(C)C (configuration not stated) + C=CC(=O)N1CCN(c2nc(OCC3CCCN3C)nc3c(F)c(-c4nc(N)cc(C)c4C(F)(F)F)c(Cl)cc23)C(C)C1	label 0
CC(Nc1ccc2c(c1)OCCn1cc(N3C(=O)OCC3C(F)F)nc1-2)C(N)=O (configuration not stated) + C=CC(=O)N1CCN(c2nc(OCC3CCCN3C)nc3c(F)c(-c4nc(N)cc(C)c4C(F)(F)F)c(Cl)cc23)C(C)C1	label 1
CCC(CC)c1cc(NC2CCC(N)C2)n2nccc2n1 (configuration not stated) + C=CC(=O)N1CCN(c2nc(OCC3CCCN3C)nc3c(F)c(-c4nc(N)cc(C)c4C(F)(F)F)c(Cl)cc23)C(C)C1	label 0
NC1c2ccccc2OC12CCN(c1cnc3c(N4CCCc5ncccc54)n[nH]c3n1)CC2 (configuration not stated) + C=CC(=O)N1CCN(c2nc(OCC3CCCN3C)nc3c(F)c(-c4nc(N)cc(C)c4C(F)(F)F)c(Cl)cc23)C(C)C1	label 1
O=C(c1ccc(F)c(F)c1Nc1ccc(I)cc1F)N1CC(O)([C@@H]2CCCCN2)C1 + C=CC(=O)N1CCN(c2nc(OCC3CCCN3C)nc3c(F)c(-c4nc(N)cc(C)c4C(F)(F)F)c(Cl)cc23)C(C)C1	label 1
C=CC(=O)Nc1cc(Nc2nccc(-c3cn(C)c4ccccc34)n2)c(OC)cc1N(C)CCN(C)C + C=CC(=O)N1CCN(c2nc(OCC3CCCN3C)nc3c(F)c(-c4nc(N)cc(C)c4C(F)(F)F)c(Cl)cc23)C(C)C1	label 1
CCN1CCN(Cc2ccc(Nc3ncc(F)c(-c4cc(F)c5nc(C)n(C(C)C)c5c4)n3)nc2)CC1 + C=CC(=O)N1CCN(c2nc(OCC3CCCN3C)nc3c(F)c(-c4nc(N)cc(C)c4C(F)(F)F)c(Cl)cc23)C(C)C1	label 0
C[C@@H](NC(=O)c1ncnc(N)c1Cl)c1ncc(C(=O)Nc2cc(C(F)(F)F)c(Cl)cn2)s1 + C=CC(=O)N1CCN(c2nc(OCC3CCCN3C)nc3c(F)c(-c4nc(N)cc(C)c4C(F)(F)F)c(Cl)cc23)C(C)C1	label 0
Cc1nc(N2CCC3(CC2)COC(C)C3N)c(CO)nc1Sc1ccnc(N)c1Cl (configuration not stated) + C=CC(=O)N1CCN(c2nc(OCC3CCCN3C)nc3c(F)c(-c4nc(N)cc(C)c4C(F)(F)F)c(Cl)cc23)C(C)C1	label 1
CC1(O)CCCC1n1c(=O)c(C(F)F)cc2cnc(NC3CCN(S(C)(=O)=O)CC3)nc21 (configuration not stated) + C=CC(=O)N1CCN(c2nc(OCC3CCCN3C)nc3c(F)c(-c4nc(N)cc(C)c4C(F)(F)F)c(Cl)cc23)C(C)C1	label 0

----------
Reported viability, T/C values follow for various molecules
System: 422866-222-R5-J1-PDC complex spheroids viability
Experiment: Anticancer human tumor 422866-222-R5-J1-PDC cell line growth inhibition [RAS];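 note: spheroids exposed to compounds for 7 days; 100% = DMSO vehicle control viability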
Settings: second compound 0.000949 µM; first compound 0.0316 µM; active compounds read low
endpoint label: viability, T/C (%)

molecule	value measured
CC(Nc1ccc2c(c1)OCCn1cc(N3C(=O)OCC3C(F)F)nc1-2)C(N)=O (centres undefined) + CCn1c(-c2cccnc2C(C)OC)c2c3cc(ccc31)N1CCOC(CC(NC(=O)C(C(C)C)N(C)C(=O)C3(F)CCN(C(=O)C#CC(C)(C)N(C)C)CC3)C(=O)N3CCCC(N3)C(=O)OCC(C)(C)C2)C1	18.2
C[C@@H](NC(=O)c1ncnc(N)c1Cl)c1ncc(C(=O)Nc2cc(C(F)(F)F)c(Cl)cn2)s1 + CCn1c(-c2cccnc2C(C)OC)c2c3cc(ccc31)N1CCOC(CC(NC(=O)C(C(C)C)N(C)C(=O)C3(F)CCN(C(=O)C#CC(C)(C)N(C)C)CC3)C(=O)N3CCCC(N3)C(=O)OCC(C)(C)C2)C1	32
Cc1nc(N2CCC3(CC2)COC(C)C3N)c(CO)nc1Sc1ccnc(N)c1Cl (centres undefined) + CCn1c(-c2cccnc2C(C)OC)c2c3cc(ccc31)N1CCOC(CC(NC(=O)C(C(C)C)N(C)C(=O)C3(F)CCN(C(=O)C#CC(C)(C)N(C)C)CC3)C(=O)N3CCCC(N3)C(=O)OCC(C)(C)C2)C1	23.6
C[C@@H](NC(=O)c1ncnc(N)c1Cl)c1ncc(C(=O)Nc2cc(C(F)(F)F)c(Cl)cn2)s1 + CCn1c(-c2cc(N3CCN(C)CC3)cnc2C(C)OC)c2c3cc(ccc31)-c1csc(n1)CC(NC(=O)C1CC1C)C(=O)N1CCCC(N1)C(=O)OCC(C)(C)C2	33.8

----------
System: 422866-222-R5-J1-PDC complex spheroids viability
Assay: Anticancer human tumor 422866-222-R5-J1-PDC cell line growth inhibition [RAS];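 note: spheroids exposed to compounds for 7 days; 100% = DMSO vehicle control viability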
Details: second compound 0.0949 µM; first compound 0.0949 µM; active compounds read low
# viability, T/C values compiled below
endpoint label: viability, T/C (%)

molecule	endpoint label	unit text	value measured
CC1(C)CCC(Nc2ncc(C(F)(F)F)c(-c3c[nH]c4c(P(C)(C)=O)c(C#N)ccc34)n2)CN1 (centres undefined) + CCn1c(-c2cccnc2C(C)OC)c2c3cc(ccc31)N1CCOC(CC(NC(=O)C(C(C)C)N(C)C(=O)C3(F)CCN(C(=O)C#CC(C)(C)N(C)C)CC3)C(=O)N3CCCC(N3)C(=O)OCC(C)(C)C2)C1	viability, T/C	%	26.7
CCc1c2c(nc3ccc(O)cc13)-c1cc3c(c(=O)n1C2)COC(=O)[C@]3(O)CC + CCn1c(-c2cc(N3CCN(C)CC3)cnc2C(C)OC)c2c3cc(ccc31)-c1csc(n1)CC(NC(=O)C1CC1C)C(=O)N1CCCC(N1)C(=O)OCC(C)(C)C2	viability, T/C	%	9.66
CC1(C)CCC(Nc2ncc(C(F)(F)F)c(-c3c[nH]c4c(P(C)(C)=O)c(C#N)ccc34)n2)CN1 (centres undefined) + CCn1c(-c2cc(N3CCN(C)CC3)cnc2C(C)OC)c2c3cc(ccc31)-c1csc(n1)CC(NC(=O)C1CC1C)C(=O)N1CCCC(N1)C(=O)OCC(C)(C)C2	viability, T/C	%	23.1
CCc1c2c(nc3ccc(O)cc13)-c1cc3c(c(=O)n1C2)COC(=O)[C@]3(O)CC + CCn1c(-c2cccnc2C(C)OC)c2c3cc(ccc31)N1CCOC(CC(NC(=O)C(C(C)C)N(C)C(=O)C3(F)CCN(C(=O)C#CC(C)(C)N(C)C)CC3)C(=O)N3CCCC(N3)C(=O)OCC(C)(C)C2)C1	viability, T/C	%	11.1

----------
System: 422866-222-R5-J1-PDC complex spheroids viability
Assay: Anticancer human tumor 422866-222-R5-J1-PDC cell line growth inhibition [RAS];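 note: spheroids exposed to compounds for 7 days; 100% = DMSO vehicle control viability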
Conditions: second compound 0.000949 µM; first compound 0.0316 µM; active compounds read low

molecule	viability, T/C
C=CC(=O)Nc1cc(Nc2nccc(-c3cn(C)c4ccccc34)n2)c(OC)cc1N(C)CCN(C)C + CCn1c(-c2cccnc2C(C)OC)c2c3cc(ccc31)N1CCOC(CC(NC(=O)C(C(C)C)N(C)C(=O)C3(F)CCN(C(=O)C#CC(C)(C)N(C)C)CC3)C(=O)N3CCCC(N3)C(=O)OCC(C)(C)C2)C1	26.2%
Nc1ccn(C2OC(CO)C(O)C2(F)F)c(=O)n1 (centres undefined) + CCn1c(-c2cccnc2C(C)OC)c2c3cc(ccc31)N1CCOC(CC(NC(=O)C(C(C)C)N(C)C(=O)C3(F)CCN(C(=O)C#CC(C)(C)N(C)C)CC3)C(=O)N3CCCC(N3)C(=O)OCC(C)(C)C2)C1	25.8%
CCC(CC)c1cc(NC2CCC(N)C2)n2nccc2n1 (centres undefined) + CCn1c(-c2cc(N3CCN(C)CC3)cnc2C(C)OC)c2c3cc(ccc31)-c1csc(n1)CC(NC(=O)C1CC1C)C(=O)N1CCCC(N1)C(=O)OCC(C)(C)C2	36.1%
Nc1ccn(C2OC(CO)C(O)C2(F)F)c(=O)n1 (centres undefined) + CCn1c(-c2cc(N3CCN(C)CC3)cnc2C(C)OC)c2c3cc(ccc31)-c1csc(n1)CC(NC(=O)C1CC1C)C(=O)N1CCCC(N1)C(=O)OCC(C)(C)C2	25.3%
